Measured EC50 of individual entries
# Test system: T. brucei RES II
# test.method.notes: Drug sensitivity, compound 38-resistant clone RES II
# Type: cell-based, T. b. brucei
# test.parameters: Trypanosoma brucei, read-out: EC50, RES II
Give a bare numeral; the unit nM is implied.

Example entries and their recorded answers appear below.
Nc1nc(Nc2ccccc2)sc1C(=O)c1c(F)cccc1F [Compound 69, reference compound] = 390
O=C1Nc2ccc3ncsc3c2/C1=C/Nc1ccc(S(=O)(=O)Nc2ccccn2)cc1 = 110

# ---- query molecule ----
Query block: Give its EC50 value. Item: CC(C)(O)CC(=O)c1sc(Nc2ccc(F)c(F)c2)nc1N
Result block: 8200

* * *

# test.method.notes: Mouse liver microsomal intrinsic clearance
# Type: in vitro ADME
Short version: CLint (mouse) at least 5 mL·min/g is 1.0, less is 0.0.

Query block: Does Nc1nc(NC2CCCCC2)sc1C(=O)C1CCCCC1 have a reported CLint (mouse) of at least 5 mL·min/g?
Result block: 1.0

Query block: And Nc1nc(Nc2ccc(F)c(F)c2)sc1C(=O)CN1CCCC1 ?
Result block: 0.0

Query block: And Nc1nc(Nc2ccc(F)c(F)c2)sc1C(=O)CN1CCCCC1 ?
Result block: 1.0

Query block: And Nc1nc(NC2CCCCC2)sc1C(=O)c1ccc(F)c(F)c1 ?
Result block: 1.0

Query block: And Nc1nc(Nc2ccc(F)c(F)c2)sc1C(=O)CN1CCOCC1 ?
Result block: 0.0

Query block: And O=C(c1cnc(NC2CCCCC2)s1)C1CCCCC1 ?
Result block: 1.0

Query block: And CC1CCCN1CC(=O)c1sc(Nc2ccc(F)c(F)c2)nc1N (centres unmarked) ?
Result block: 1.0

Query block: And COC(C)(C)C(=O)c1sc(NC2CCCCC2)nc1N ?
Result block: 0.0

Query block: And CC(C)CC(=O)c1sc(Nc2ccc(F)cc2)nc1N ?
Result block: 1.0

Query block: And Nc1nc(NC2CCCCC2)sc1C(=O)c1c(Cl)cccc1Cl ?
Result block: 0.0

Query block: And Nc1nc(NC2CCCCC2)sc1C(=O)c1ccccc1C(F)(F)F ?
Result block: 1.0

Query block: And Nc1nc(NC2CCCC(O)C2)sc1C(=O)c1c(F)cccc1F (centres unmarked) [Compound 16B] ?
Result block: 0.0

Query block: And Nc1nc(NC2CCCCC2)sc1C(=O)c1ccc(C(F)(F)F)cc1 ?
Result block: 0.0

Query block: And Nc1nc(Nc2ccc(F)c(F)c2)sc1C(=O)COC1CC(F)(F)C1(F)F (centres unmarked) ?
Result block: 1.0

Query block: And COC(C)(C)CC(=O)c1sc(Nc2ccc(F)c(F)c2)nc1N ?
Result block: 1.0

Query block: And Nc1nc(Nc2ccc(F)c(F)c2)sc1C(=O)CN1CCC(F)(F)CC1 ?
Result block: 1.0

Query block: And Nc1nc(Nc2ccc(F)c(F)c2)sc1C(=O)CN1C[C@@H]2C[C@H]1CO2 ?
Result block: 0.0

Query block: And COc1ccc(Nc2nc(N)c(C(=O)COC(C)C(F)(F)F)s2)cn1 (centres unmarked) ?
Result block: 1.0

* * *

# test.method.notes: Pharmacokinetics in NMRI mice
# Type: in vivo, female NMRI mice
# test.parameters: female, NMRI, mouse, whole blood; mice, IP, 50 mg kg^–1; read-out: total blood Cmax
readout.kind: Cmax (µM)
Give a bare numeral; the unit µM is implied.

Query block: Give its Cmax value. Item: CC(C)(O)CC(=O)c1sc(Nc2ccc(F)c(F)c2)nc1N
Result block: 55

* * *

# test.method.notes: Mouse brain penetration (brain:blood ratio)
# Assay type: in vivo, female NMRI mice
# test.parameters: female, NMRI, mouse, brain and blood, 10 mg kg^–1; mice, bolus of test compound, total compound; read-out: brain/blood (B/B) ratio
Measured Kp at 30 min of individual entries
Form rule: numeric answer, no unit written next to it.

CC(C)CC(=O)c1sc(Nc2ccc(F)c(F)c2)nc1N = 4.7

Query block: Give its Kp at 30 min value. Item: CC(C)C(=O)c1sc(NC2CCCCC2)nc1N
Result block: 0.06

Query block: And CC(C)(O)CC(=O)c1sc(Nc2ccc(F)c(F)c2)nc1N ?
Result block: 1.4

Query block: And CC(OCC(=O)c1sc(Nc2ccc(Cl)cc2)nc1N)C(F)(F)F (stereo not shown) ?
Result block: 0.9

* * *

# test.method.notes: Kinetic aqueous solubility (laser nephelometry)
# Format: physicochemical
# test.parameters: Milli-Q water with 2.5% DMSO
Measured solubility of individual entries

Example entries and their recorded answers appear below.
CC(C)(O)CC(=O)c1sc(Nc2ccc(F)c(F)c2)nc1N = > 100 µg/mL
CC(OCC(=O)c1sc(Nc2ccc(C(F)(F)F)nc2)nc1N)C(F)(F)F (stereo not drawn) = > 100 µg/mL

# ---- query compound ----
Query block: Give its solubility value. Item: CC(OCC(=O)c1sc(Nc2ccn(C)n2)nc1N)C(F)(F)F (stereo not drawn)
Result block: > 100 µg/mL

* * *

Measured CLint (rat) of individual entries
# test.method.notes: Rat microsomal intrinsic clearance
# Format: in vitro ADME
# test.parameters: second value of mouse/rat cell

Example entries and their recorded answers appear below.
Nc1nc(Nc2ccc(F)c(F)c2)sc1C(=O)CN1C[C@H]2CC[C@@H](C1)O2 = 15.1 mL·min/g
CC(OCC(=O)c1sc(Nc2ccc(Cl)cc2)nc1N)C(F)(F)F (stereo not drawn) = 1.7 mL·min/g
Nc1nc(Nc2ccc(F)c(F)c2)sc1C(=O)CN1CCCC1C(F)(F)F (stereo not drawn) = 10 mL·min/g
Nc1nc(Nc2ccc(F)c(F)c2)sc1C(=O)COC1CC(F)(F)C1(F)F (stereo not drawn) = 4.4 mL·min/g
Nc1nc(Nc2ccc(F)c(F)c2)sc1C(=O)CN1CCCC(F)(F)C1 = 20 mL·min/g

Query block: Give its CLint (rat) value. Item: Nc1nc(Nc2ccc(F)c(F)c2)sc1C(=O)CN1CCC(F)(F)CC1
Result block: 11 mL·min/g

Query block: And Nc1nc(Nc2ccc(F)c(F)c2)sc1C(=O)CN1C[C@@H]2C[C@H]1CO2 ?
Result block: 4.9 mL·min/g

Query block: And CC(C)OCC(=O)c1sc(Nc2ccc(F)c(F)c2)nc1N ?
Result block: 3.6 mL·min/g

Query block: And CC(OCC(=O)c1sc(Nc2ccc(C(F)(F)F)cc2)nc1N)C(F)(F)F (stereo not drawn) ?
Result block: 0.5 mL·min/g

* * *

# test.method.notes: Rat microsomal intrinsic clearance
# Format: in vitro ADME
# test.parameters: second value of mouse/rat cell
Measured CLint (rat) of individual entries
Give a bare numeral; the unit mL·min/g is implied.

CC1CCCN1CC(=O)c1sc(Nc2ccc(F)c(F)c2)nc1N (stereo not shown) = 3.1

Query block: Give its CLint (rat) value. Item: CC(OCC(=O)c1sc(Nc2ccc(F)c(F)c2)nc1N)C(F)(F)F (stereo not shown)
Result block: 2.9

Query block: And CC(OCC(=O)c1sc(Nc2ccc3c(c2)OC(F)(F)O3)nc1N)C(F)(F)F (stereo not shown) ?
Result block: 1.2

Query block: And COc1ccc(Nc2nc(N)c(C(=O)COC(C)C(F)(F)F)s2)cn1 (stereo not shown) ?
Result block: 2.4

* * *

# test.method.notes: Mouse liver microsomal intrinsic clearance
# Type: in vitro ADME
Binarize CLint (mouse) at 6 mL·min/g; below is T, at or above is F.

CC(OCC(=O)c1sc(Nc2ccc3c(c2)OC(F)(F)O3)nc1N)C(F)(F)F (centres unmarked) = T
CC(OCC(=O)c1sc(Nc2ccc(Cl)cc2)nc1N)C(F)(F)F (centres unmarked) = T
Nc1nc(Nc2ccccc2)sc1C(=O)c1ccccc1 = F
Nc1nc(Nc2ccccc2)sc1C(=O)c1ccc(F)cc1 = F

Query block: Regarding Nc1nc(Nc2ccc(F)c(F)c2)sc1C(=O)COC1CCC1 , kindly confirm whether its CLint (mouse) is beneath 6 mL·min/g.
Result block: F

Query block: And CC(C)(C)C(=O)c1sc(NC2CCCCC2)nc1N ?
Result block: T

Query block: And Nc1nc(Nc2ccc(F)c(F)c2)sc1C(=O)CN1C[C@H]2CC[C@@H](C1)O2 ?
Result block: F

Query block: And Nc1nc(Nc2ccc(F)c(F)c2)sc1C(=O)CN1CCCC1C(F)(F)F (centres unmarked) ?
Result block: F

Query block: And CC(OCC(=O)c1sc(Nc2ccc(C(F)(F)F)cc2)nc1N)C(F)(F)F (centres unmarked) ?
Result block: T

Query block: And Nc1nc(NC2CCCCC2)sc1C(=O)c1ccc(F)cc1F ?
Result block: F

* * *

# test.method.notes: Equilibrium dialysis, free fraction in plasma
# Assay type: in vitro ADME, mouse
# test.parameters: CD1, mouse, plasma, pH 7.4; matrix not given; read-out: Fu (free fraction)
readout.kind: fraction unbound at 5 h, 10 μg mL^–1
Form rule: numeric answer, no unit written next to it.

Nc1nc(N[C@H]2CC[C@H](O)CC2)sc1C(=O)c1c(F)cccc1F [Compound 16A] = 0.39

Query block: Give its fraction unbound at 5 h, 10 μg mL^–1 value. Item: Nc1nc(NC2CCCC(O)C2)sc1C(=O)c1c(F)cccc1F (centres unmarked) [Compound 16B]
Result block: 0.22
